target: hGIPR (Homo sapiens, UniProt P48546); assay: Functional cAMP activity in the presence of 1% HSA; type: cell-based; conditions: read-out: cAMP Rel EC50, hGIPR
Sequence (P48546 22-466): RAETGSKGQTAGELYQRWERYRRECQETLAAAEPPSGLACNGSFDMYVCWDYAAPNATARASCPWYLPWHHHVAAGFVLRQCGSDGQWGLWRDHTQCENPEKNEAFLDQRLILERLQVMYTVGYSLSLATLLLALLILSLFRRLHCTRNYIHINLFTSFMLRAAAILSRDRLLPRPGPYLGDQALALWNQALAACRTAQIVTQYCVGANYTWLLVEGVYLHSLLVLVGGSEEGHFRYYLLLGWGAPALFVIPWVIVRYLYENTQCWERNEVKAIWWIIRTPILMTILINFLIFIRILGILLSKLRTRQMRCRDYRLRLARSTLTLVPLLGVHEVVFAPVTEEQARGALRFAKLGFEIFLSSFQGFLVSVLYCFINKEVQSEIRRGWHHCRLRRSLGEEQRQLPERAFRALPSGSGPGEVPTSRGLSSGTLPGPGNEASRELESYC
Starred links: 1 amine or outer side, 2 acyl side, 3 side chain; linkers in the order of their positions; H or OH if unused. Non-standard residues stand in square brackets, D forms with d. Groups on a side chain read outwards from the residue. No end group written: not given here. *: point of attachment. C20 diacid = O=C(O)CCCCCCCCCCCCCCCCCCC(=O)*; C18 diacid = O=C(O)CCCCCCCCCCCCCCCCC(=O)*; αMePhe(2-F) = C[C@](N)(Cc1ccccc1F)C(=O)O; γGlu = O=C(O)[C@H](CCC(=O)[*:2])N[*:1]; αMe4Pal = C[C@](N)(Cc1ccncc1)C(=O)O; αMeY = C[C@](N)(Cc1ccc(O)cc1)C(=O)O; αMeF = C[C@](N)(Cc1ccccc1)C(=O)O; 4Pal = N[C@@H](Cc1ccncc1)C(=O)O; αMeL = CC(C)C[C@](C)(N)C(=O)O; αMeS = C[C@](N)(CO)C(=O)O; Orn = NCCC[C@H](N)C(=O)O; AEEA = NCCOCCOCC(=O)O; Aib = CC(C)(N)C(=O)O
The substances listed here are annotated with their EC50.
readout-type: EC50 (nM)

substance	readout-type	test-value
H-Y[Aib]QGTFTSDFS[Orn][αMeL]LDKK([AEEA-γGlu-γGlu-C18 diacid])AQ[Aib]AFIEYLLE[Aib]GHSSGAPPPSGS-NH2 [Example 243]	EC50	12.1
H-Y[Aib]QGTFTSD[4Pal]SK[αMeL]LDKK([AEEA-γGlu-C18 diacid])AQ[αMe4Pal]AFIE[αMe4Pal]LIE[Aib]GPSSGAPPPSGS-NH2 [Example 916]	EC50	4.78
Y[Aib]QGTFTSD[4Pal]S[Orn][αMeL]LDKK([γGlu-γGlu-C18 diacid])AQ[Aib]AFIE[αMeY]LLEGGPSSGAPPPSGSEE-NH2 [Example 944]	EC50	37.2
H-Y[Aib]QGT[αMeF]TSD[4Pal][αMeS]I[αMeL]LD[Orn]K([γGlu-γGlu-C18 diacid])AQ[αMe4Pal]EFI[dE][αMeY]LIEGGPSSGAPPPSGE-NH2 [Example 1170]	EC50	0.663
H-Y[Aib]QGT[αMePhe(2-F)]TSD[4Pal][αMeS]I[αMeL]LD[Orn]K([AEEA-γGlu-C18 diacid])AQ[αMe4Pal]EFI[dE][αMeY]LIEGGPSSGEPPPTGE-NH2 [Example 1143]	EC50	0.751
H-Y[Aib]QGTFTSDFSK[αMeL]LDKK([AEEA-γGlu-C20 diacid])AQ[Aib]AFIEYLLAGGPSSGEPPPGGS-NH2 [Example 9]	EC50	41.8
Y[Aib]QGTFTSD[4Pal]SQ[αMeL]LDKK([γGlu-γGlu-C18 diacid])AQ[αMe4Pal]AFIEYLIE[Aib]GPSSGAPPPSGS-NH2 [Example 858]	EC50	13.1
Y[Aib]QGT[αMePhe(2-F)]TSD[4Pal][αMeS]I[αMeL]LD[Orn]K([AEEA-γGlu-C18 diacid])AQ[αMe4Pal]EFI[dE][αMeY]LIEGGPPS[Aib]EPPPEGE-NH2 [Example 1190]	EC50	0.954
H-Y[Aib]QGTFTSD[4Pal]SQ[αMeL]LD[Orn]K([dE-γGlu-C18 diacid])AQ[αMe4Pal]AFIE[αMeY]LIE[Aib]GPSSGEPPPSGSEE-NH2 [Example 1103]	EC50	19.5
H-Y[Aib]QGT[αMePhe(2-F)]TSDYSILLDKK([γGlu-γGlu-C18 diacid])AQ[Aib]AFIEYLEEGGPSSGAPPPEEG-NH2 [Example 471]	EC50	5.45
H-Y[Aib]QGT[αMePhe(2-F)]TSD[4Pal][αMeS]ILLD[Orn]K([γGlu-γGlu-C18 diacid])AQ[Aib][Orn]FI[dE][αMeY]LQEGGPSSGEPPPEGAEE-NH2 [Example 574]	EC50	20.5
